- target_system: UniProt P14842
- assay_details: Tested for its ability to activate phospholipase c by quantification of IP3 at cloned rat 5-hydroxytryptamine 2A receptor
measured_property: EC50 (nM)
Numeric only. Scale: nM

Input COc1cc(CCN)cc(OC)c1OC . Output EC50: 2600

----------
- target_system: 5-hydroxytryptamine receptor 2A (Rattus norvegicus)
- Sequence (P14842 whole entry): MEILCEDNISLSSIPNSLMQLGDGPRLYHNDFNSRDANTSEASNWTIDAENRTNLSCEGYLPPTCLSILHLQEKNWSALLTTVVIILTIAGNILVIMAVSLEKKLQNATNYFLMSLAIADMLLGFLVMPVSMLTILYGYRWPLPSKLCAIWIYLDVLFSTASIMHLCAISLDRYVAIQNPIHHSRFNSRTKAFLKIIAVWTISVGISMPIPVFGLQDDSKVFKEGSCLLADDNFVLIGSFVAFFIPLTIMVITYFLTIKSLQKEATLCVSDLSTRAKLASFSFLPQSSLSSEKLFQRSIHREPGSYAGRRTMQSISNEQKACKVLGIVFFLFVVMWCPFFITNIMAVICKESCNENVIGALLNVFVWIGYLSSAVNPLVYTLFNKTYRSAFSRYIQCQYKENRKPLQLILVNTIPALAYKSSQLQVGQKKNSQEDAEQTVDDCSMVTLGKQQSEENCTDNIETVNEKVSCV
- assay_details: Tested for its ability to activate phospholipase C by quantification of IP3 at cloned rat 5-hydroxytryptamine 2A receptor
measured_property: EC50 (nM)
Numeric only. Scale: nM

Input COc1cc(Br)c2c3c1[C@H](CN)CC[C@H]3CO2 . Output EC50: 340

----------
- target_system: 5-hydroxytryptamine receptor 2A (Rattus norvegicus)
- assay_details: In vitro binding to 5-hydroxytryptamine 2A receptor using [125 I]-DOI
Below: a set of entries, each annotated with reported pKi.
Note on units: pKi is unitless, being -log10 of a concentration expressed in mol/L.

Take a look at these entries with their results.
compound	target_system	recorded_value
COc1ccc2c3c1[C@H](CN)CC[C@H]3CO2	5-hydroxytryptamine receptor 2A (Rattus norvegicus)	6.51
COc1cc(Br)c2c3c1[C@H](CN)CC[C@@H]3CO2	5-hydroxytryptamine receptor 2A (Rattus norvegicus)	8.06
COc1ccc2c3c1[C@H](CN)CC[C@@H]3CO2	5-hydroxytryptamine receptor 2A (Rattus norvegicus)	6.15
COc1cc(Br)c2c3c1C[C@H](N)C[C@@H]3CO2 (relative stereo)	5-hydroxytryptamine receptor 2A (Rattus norvegicus)	7.80

Input COc1cc(Br)c2occ3c2c1[C@H](CN)CC3 . Output pKi: 8.59

Input COc1ccc2occ3c2c1[C@H](CN)CC3 . Output pKi: 6.70

Input CN(C)CCc1c[nH]c2cccc(O)c12 . Output pKi: 7.60

All values here come from ChEMBL document CHEMBL1136798.
